# tgt: T1, rat IL-25 expressed with a C-terminal myc-myc-hexahistidine tag (rat)
# T1 construct: also called Rat IL-25-MMH
# T1 chain: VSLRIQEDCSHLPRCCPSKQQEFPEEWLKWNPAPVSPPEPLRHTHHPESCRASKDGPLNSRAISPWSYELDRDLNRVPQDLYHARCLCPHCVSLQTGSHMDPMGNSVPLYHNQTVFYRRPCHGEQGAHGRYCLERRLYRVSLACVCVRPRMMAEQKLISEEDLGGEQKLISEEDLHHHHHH
# assay-overview: SPR Biacore, antibody captured, 25C;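 note: purified anti-IL-25 antibodies were tested by real-time surface plasmon resonance on a Biacore 4000, with rate constants obtained from sensorgram fits to a 1:1 binding model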
parameter-measured: pKd
Formally, pKd is defined as -log10 of the concentration c, with c in mol/L.

// below: answered binders
H4H10871P (antibody, human IgG4, V domains shown, H4H prefix = human IgG4 Fc) VH: QVQLVQSGAEVMKPGASVKVSCKSSDFAFTTYGISWVRQAPGQGLEWMGWISAYNGNTNYEQRFQGRITMTTDTSTTTVYMELRSLRSDDTAVYYCARDPDYCSSNTCSDAFDLWGQGTMVTVSS VL: DIQMTQSPSSLSASVRDRVTITCRASQGITNYLAWYQQKPGKVPKVLIYAASTLQSGVPSRFSGSGSGTEFTLAISSLQPEDVATYFCQQYGSAPWTFGQGTKVEIK :: 9.88
H4H10905P (antibody, human IgG4, V domains shown, H4H prefix = human IgG4 Fc) VH: QVQLVQSGAEVKKPGTSVKVSCKASGYTFTNYGISWVRQAPGQGLEWLGWISAYNDNTDYAQKLQARVTMTTDTFTSTAYMDLRSLRSDDTAVYYCARVPITGTTSSFDFWGQGTLVTVSS VL: DIQMTQSPSSLSASVGDRVTISCRASQTIYSYLNWFQQKPGKAPKLLIYDASSLQSGVPSRFSGSGSGTHFTLTISSLQPEDFATYFCQQTYSTPLTFGGGTKVEIK :: 9.09
H4H10907P (antibody, human IgG4, V domains shown, H4H prefix = human IgG4 Fc) VH: EVQLVESGGGLVQPGGSLRLSCAASGFTFSNYDIHWVRQVPGKGLEWISTIGSAGDTFYPGSVKGRFTISRENAKNSLYLQMNSLRAGDSAVYYCARGDNWNYVSWFFDLWGRGTLVTVSS VL: DIQLTQSPSFLSTSVGDRVTITCWASQDISSFLAWYQQKPGKAPKLLIYAASVLQSGVPSRFSGSGSGTEFTLTISSLQPEDFATYYCQQVNSYPITFGQGTRLEIK :: 7.17
H4H10897P (antibody, human IgG4, V domains shown, H4H prefix = human IgG4 Fc) VH: QVQLQESGPGLVKPSETLSLTCTVSGGSISDYYWSWIRQPPGKGLEWIGHIYYSGSTNHNPSLKSRVAISVDTSKNQFSLRLYSVTAADTAVYYCARDGYSSSSGFYYFGMDVWGQGTTVTVSS VL: DIQLTQSPSFLSASVGDRVTITCWASQDINSYLAWYQQKPGKAPKLLIFAASTLQGGVPSRFSGSGSGTEFTLTISSLQPEDFATYYCQHLSSFPPTFGQGTRLEIK :: 8.62
H4H10863P (antibody, human IgG4, V domains shown, H4H prefix = human IgG4 Fc) VH: QVQLVQSGAEVKKPGASVKVSCKASGYTFSSYGISWVRQAPGQGLEWMGWISAYNDNTQYAQKFQGRVTMTTDTSTSTAYMELRSLRSDDTAVYYCARVPLQWFGESFDHWGQGTLVTVSS VL: DIQMTQSPSSLSASVGDRVTITCRASQDINNYLNWFQQKPGKAPKLLIFSTSSLQSGVPSRFSGSGSGTDFTLTISSLQSEDFATYYCQQTFITPLTFGGGTKVEIK :: 8.97

Now for another entry.
Report measured pKd; entry is H4H10876P (antibody, human IgG4, V domains shown, H4H prefix = human IgG4 Fc) VH: QVQLVQSGAEVKKPGASVKVSCKASEYTFSNYGISWVRQAPGQGLEWLGWIGAYSGFTKYAQKVQDRITMTTDASTTTAYMELRNLRSDDTAVYYCARVGTGTDSYFDFWGQGTLVTVSS VL: DIQMTQSPSSLSASVGDRVTITCRASQNINSHLNWYQQKPGKAPKLLIYTASSLQSGVPLRFSGSGSGTDFTLTISSLQPEDFGIYICQQTYITPLTFGGGTKVEIK
9.47
